Field: normalized RNA/DNA level with ligand (log10). Provide a value for each of the variants that follow.
B1: library; a variant is named by its letters at N, in order (parent)
chain: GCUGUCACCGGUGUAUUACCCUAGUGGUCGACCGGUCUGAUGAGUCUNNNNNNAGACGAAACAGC

Variants of: B1
protocol.description: normalized RNA/DNA level with ligand (relative to sTRSVctl = 100) (log10 (% of sTRSVctl)); ligand: hypoxanthine (xanthine aptamer); higher = less ribozyme self-cleavage, higher mRNA level
study.conditions: ligand concentration (+) RNA-Seq: 5 mM, HEK293T, reporter: mCherry (pCS4076), ligand present: yes
Give a plain numeric answer without units written out.

Need normalized RNA/DNA level with ligand (log10), item `UAAUGA`
1.91

Need normalized RNA/DNA level with ligand (log10), item `GACACC`
1.92

Need normalized RNA/DNA level with ligand (log10), item `GUAGUG`
1.94

Need normalized RNA/DNA level with ligand (log10), item `CCUGUC`
1.99

Need normalized RNA/DNA level with ligand (log10), item `AGGUCG`
1.86

Need normalized RNA/DNA level with ligand (log10), item `UCGUCG`
1.99

Need normalized RNA/DNA level with ligand (log10), item `CUCCGA`
1.96

Need normalized RNA/DNA level with ligand (log10), item `CACUUU`
1.89

Need normalized RNA/DNA level with ligand (log10), item `UACCCU`
1.98

Need normalized RNA/DNA level with ligand (log10), item `UUGCCU`
2.01

Need normalized RNA/DNA level with ligand (log10), item `CUCCUA`
1.96
